- target_desc: PI3Kγ (Homo sapiens)
- Sequence (P48736 whole entry): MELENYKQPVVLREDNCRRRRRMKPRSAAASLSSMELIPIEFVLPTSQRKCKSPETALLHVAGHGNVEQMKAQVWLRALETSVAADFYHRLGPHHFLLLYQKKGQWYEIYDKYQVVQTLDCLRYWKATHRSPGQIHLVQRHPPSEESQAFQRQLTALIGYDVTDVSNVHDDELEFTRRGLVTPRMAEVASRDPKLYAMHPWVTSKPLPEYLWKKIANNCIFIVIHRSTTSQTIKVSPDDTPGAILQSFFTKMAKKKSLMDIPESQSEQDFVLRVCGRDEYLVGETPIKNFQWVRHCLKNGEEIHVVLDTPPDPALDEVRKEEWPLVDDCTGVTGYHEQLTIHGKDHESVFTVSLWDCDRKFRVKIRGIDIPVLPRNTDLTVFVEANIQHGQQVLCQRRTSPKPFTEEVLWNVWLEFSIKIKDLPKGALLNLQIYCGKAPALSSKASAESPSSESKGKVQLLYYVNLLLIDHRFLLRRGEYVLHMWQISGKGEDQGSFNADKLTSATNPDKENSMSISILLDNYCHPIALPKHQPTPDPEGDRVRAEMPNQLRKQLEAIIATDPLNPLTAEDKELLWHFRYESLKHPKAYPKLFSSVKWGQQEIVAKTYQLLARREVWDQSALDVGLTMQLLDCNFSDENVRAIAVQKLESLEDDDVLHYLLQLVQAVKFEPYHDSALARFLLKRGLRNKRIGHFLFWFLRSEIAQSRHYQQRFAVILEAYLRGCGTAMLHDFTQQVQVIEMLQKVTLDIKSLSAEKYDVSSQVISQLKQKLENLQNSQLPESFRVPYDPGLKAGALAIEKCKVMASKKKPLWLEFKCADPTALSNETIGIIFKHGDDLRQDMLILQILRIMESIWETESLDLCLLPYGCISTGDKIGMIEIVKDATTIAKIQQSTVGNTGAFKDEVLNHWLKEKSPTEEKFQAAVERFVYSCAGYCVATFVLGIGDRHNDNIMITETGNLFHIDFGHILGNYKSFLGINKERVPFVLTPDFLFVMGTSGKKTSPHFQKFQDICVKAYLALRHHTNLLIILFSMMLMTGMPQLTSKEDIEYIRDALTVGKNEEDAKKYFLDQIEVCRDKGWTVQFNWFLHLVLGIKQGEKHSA
- test_description: PI3Kγ lipid kinase membrane capture assay
- Type: biochemical
- conditions: PI4KIIIβ versus PI3Kγ
measurement_kind: fold selective over PI3Kγ

compound_string: Cc1nc(NC(=O)C2CCCC2)sc1-c1ccc(Cl)c(S(=O)(=O)NCCO)c1
target_desc: PI3Kγ (Homo sapiens)
fold selective over PI3Kγ: > 90 fold

The reported value for Cc1nc(NC(=O)C(C)(C)C)sc1-c1ccc(Cl)c(S(=O)(=O)NCCO)c1 in terms of fold selective over PI3Kγ is > 600 fold

The compound listed as COc1ccc(-c2sc(NC(=O)C3CCCC3)nc2C)cc1S(=O)(=O)Nc1ccc(O)cc1 has a reported fold selective over PI3Kγ of > 140 fold

The compound listed as COc1ccc(-c2sc(NC(C)=O)nc2C)cc1S(=O)(=O)NCCO has a reported fold selective over PI3Kγ of > 40 fold

Query COc1ccc(-c2sc(NC(=O)C(C)(C)C)nc2C)cc1S(=O)(=O)Nc1ccc(O)cc1 yields fold selective over PI3Kγ of > 1000 fold
